tested on: Hek293T; assay: Primary qHTS to identify gynecologic anti-cancer compounds using libraries of approved drugs and bioactive compounds (AID 1345084); details: Gynecologic cancer cell panel viability, ATPlite luminescence, 48 h, control line for the selectivity index; series mostly up to 57.5 µM; also: nearly all actives have a fitted effect of over 55% in size; also: potency is read from the fitted curve at half-maximal effect
Records with an inconclusive call do not appear. Calls of active or inactive are those of the source. Calls follow the shape of the dose curve; as a rule, active = well fitted cell-killing curve with a large enough effect; inconclusive = small, poorly fitted or top-dose-only effect, or effect the other way; inactive = flat fitted curve, though single readings scatter.
Value kind: Potency

1) COc1cccc(Nc2c(C(N)=O)cnc3c(C)cc(S(=O)(=O)c4cccc(C(=O)N(C)C)c4)cc23)c1 ... inactive
2) Nc1ncnc2c1c(-c1cnc3[nH]ccc3c1)nn2C1CCCC1 ... 7.94 µM (active)
3) CC(=O)SC[C@@H](C)C(=O)N1CCC[C@H]1C(=O)N[C@@H](Cc1ccccc1)C(=O)O ... inactive
4) COC(=O)c1ccc2c(C(=Nc3ccc(N(C)C(=O)CN4CCN(C)CC4)cc3)c3ccccc3)c(O)[nH]c2c1 ... inactive
5) CCNC(=O)Nc1ccc2ncc(Nc3ccc(C)cc3)nc2n1 ... inactive
6) Cc1c(CN2CCN(S(C)(=O)=O)CC2)sc2c(N3CCOCC3)nc(-c3cnc(N)nc3)nc12 ... 0.501 µM (active)
7) Cc1coc2c1C(=O)C(=O)c1c-2ccc2c1CCCC2(C)C ... inactive
8) CC(C)(C)c1cc(NC(=O)Nc2ccc(-c3cn4c(n3)sc3cc(OCCN5CCOCC5)ccc34)cc2)no1 ... inactive
9) COc1cc2c(Oc3ccc(-c4cnc(Nc5ccc(F)cc5)n(C)c4=O)cc3F)ccnc2cc1OCCCN1CCOCC1 ... inactive
